System: SNB-75 CNS
Assay: NCI tumour cell line growth inhibition, 48 h
endpoint: GI50

For every item in the list below, what is its measured GI50?
1. Cc1ccc2sc3c(NCCCNCCO)nc4ccccc4c3c(=O)c2c1
2. CCCCCCCCCCCCCCCCOCCCOP(=O)(O)C1CCCN(O)C1=O (centres undefined)
3. Cc1ccc(S(=O)(=O)n2cc(C(=O)C(=O)Nc3ccncc3)c3ccccc32)cc1
4. C/C(=C\c1c[nH]c2ccccc12)[N+](=O)[O-]

result:
1200 nM
2130 nM
1720 nM
1890 nM

* * *

Test system: RXF 393 renal
Assay: NCI tumour cell line growth inhibition, 48 h
So I've got a bunch of compounds here, and I need their TGI values.
Give bare numbers, in µM.

Study these solved cases before continuing.
Cn1cc(C2=C(c3c4n(c5ccccc35)CCC(CN)CC4)C(=O)NC2=O)c2ccccc21 (stereo unspecified)	7.1
Cc1c(CCl)c(=O)oc2c(C)c3occ(CCl)c(=O)c3cc12	30.9
NC(=O)NC(=O)c1ccc(NC(=O)CBr)cc1	3.32

For every item in the list below, what is its measured TGI?
1. Clc1ccc(CO/N=C(\Cn2ccnc2)c2ccc(Cl)cc2Cl)c(Cl)c1
2. CN1CCN(Cc2ccc(NC(=O)c3cncc(C#Cc4c(N)ncc5cc(F)ccc45)c3)cc2C(F)(F)F)CC1
3. C=C(Cl)C(Br)(CBr)CCC(Br)C(C)(C)Br (stereo unspecified)
4. Cc1ccc2[nH]c(=O)c(C(C#N)c3ccccc3)nc2c1 (stereo unspecified)

result:
1: 3.05; 2: 1.57; 3: 7.86; 4: 78.8

For every item in the list below, what is its measured TGI?
1. CCCCCCCCCCCCNC1(C)CNCCCNCCNCCCNC1
2. O=C1c2cccnc2C(=O)c2c1nc1ccccc1c2-c1cncc(-c2c3c(nc4ccccc24)C(=O)c2cccnc2C3=O)c1

result:
[2.93, 5.48]
